src = paper PMC10847618

Assay: Hemolytic activity
Assay type: cell-based, human
Settings: human, red blood cell suspension (10 %, v/v), pH 7.4
property: hemolysis at 1 h, 50 µM (%)
Note: unit % is implicit; provide only the numeric part.

Task: Given the compound `Cc1ccccc1C(=O)/C=C/c1cn(Cc2cn(-c3ccnc4cc(Cl)ccc34)nn2)c2ccccc12` , what is its reported hemolysis at 1 h, 50 µM?
Output: 2.3

----------
Experiment: Hemolytic activity
Assay type: cell-based, human
Conditions: human, red blood cell suspension (10 %, v/v), pH 7.4
property: hemolysis at 1 h, 800 µM (%)
Note: unit % is implicit; provide only the numeric part.

Task: Given the compound `Cc1ccccc1C(=O)/C=C/c1cn(Cc2cn(-c3ccnc4cc(Cl)ccc34)nn2)c2ccccc12` , what is its reported hemolysis at 1 h, 800 µM?
Output: 5.9
